Entry source: patent US20090312406A1

Test system: Enterovirus 71 (4643)
Test: In vitro EV 71 neutralization assay, cytopathic effect on RD cells
Type: cell-based
Details: Enterovirus A, RD
measure name: IC50

`NC12CC3CC(CC(C3)C1)C2` has a reported IC50 of > 25 µM

---

System: HSV-1
Test: In vitro HSV-1 plaque reduction assay in Vero cells (Example 5)
Type: cell-based
Details: Human alphaherpesvirus 1; HSV-1, Vero cells, 72 h; read-out: EC50 (concentration reducing 50% of plaque numbers)
measure name: EC50

Notebook: Cc1cc(=O)oc2c1ccc1oc(C(=O)c3ccccc3)c(-c3ccccc3)c12 [Compound 1] , EC50 read as ~500 nM

---

System: Influenza B/TW/70325/05
Experiment: Anti-influenza CPE neutralization test on MDCK cells
Assay type: cell-based
Conditions: Influenza B virus, Influenza B/TW/70325/05, CPE
compounds and their reported pIC50
pIC50 field: float, defined as -log10 of concentration (mol/L).

Tested on Influenza B/TW/70325/05, the item CC(=O)N[C@H]1[C@H]([C@H](O)[C@H](O)CO)OC(C(=O)O)=C[C@@H]1N=C(N)N [Relenza, Zanamivir, reference compound] showed pIC50 equal to 7.70

Cc1cc(=O)oc2c1ccc1oc(C(=O)c3cccs3)c(-c3ccccc3)c12 [Compound 95] tested on Influenza B/TW/70325/05 gave pIC50: 7.05

# lookup: Cc1cc(=O)oc2c1ccc1oc(C(=O)c3ccccc3)c(-c3ccccc3)c12 [Compound 1] on Influenza B/TW/70325/05, pIC50 = 7.17
